Literature compilation of IC50 measurements on Serine/threonine-protein kinase pim-2 (Homo sapiens, UniProt Q9P1W9).

Here are 5 compounds together with their reported answers.
>  <COMPOUND>
FC(F)(F)c1cccc(Nc2nc3c(-c4nnc[nH]4)cccc3c3cnccc23)c1

>  <MEASURED TARGET>
Serine/threonine-protein kinase pim-2 (Homo sapiens, UniProt Q9P1W9)

>  <IC50>
> 1100 nM

$$$$
>  <COMPOUND>
CN(C)CCCN(C)c1cncc(-c2cccc(/C=C/C(=O)O)c2)n1

>  <MEASURED TARGET>
Serine/threonine-protein kinase pim-2 (Homo sapiens, UniProt Q9P1W9)

>  <IC50>
370 nM

$$$$
>  <COMPOUND>
COC1(c2cc(F)c(-c3nc(C(=O)Nc4cnccc4[C@@H]4C[C@H](C)C[C@H](N)C4)c(N)cc3F)c(F)c2)COC1

>  <MEASURED TARGET>
Serine/threonine-protein kinase pim-2 (Homo sapiens, UniProt Q9P1W9)

>  <IC50>
0.72 nM

$$$$
>  <COMPOUND>
C[C@H]1C[C@@H](c2ccncc2NC(=O)c2ccc(F)c(-c3c(F)cc(N4CCOCC4)cc3F)n2)C[C@@H](N)[C@@H]1O

>  <MEASURED TARGET>
Serine/threonine-protein kinase pim-2 (Homo sapiens, UniProt Q9P1W9)

>  <IC50>
1.16 nM

$$$$
>  <COMPOUND>
COC1CCN(c2ccncc2NC(=O)c2csc(-c3c(F)cccc3F)n2)CC1N (centres unmarked)

>  <MEASURED TARGET>
Serine/threonine-protein kinase pim-2 (Homo sapiens, UniProt Q9P1W9)

>  <IC50>
243 nM

$$$$

List IC50 for every entry below, keeping the order given.
1. COc1cc(Nc2nc3c(-c4nc[nH]n4)cccc3c3cnccc23)ccc1F
2. CCc1cc(-c2cnc3ccc(NC45CCC(O)(CC4)C5)nn23)n[nH]1
3. COC(C)(C)c1cc(F)c(-c2nc(C(=O)Nc3cnccc3[C@@H]3C[C@H](C)C[C@H](N)C3)c(N)cc2F)c(F)c1

// result
< 500 nM
> 100 nM
1.51 nM

----------
Header: pIC50 / Serine/threonine-protein kinase pim-2 (Homo sapiens) / multiple publications
One number for each entry, as −log10 of the molar value.

>  <COMPOUND>
C[C@H]1C[C@@H](c2ccncc2NC(=O)c2ccc(F)c(-c3c(F)cc(OCC(F)(F)F)cc3F)n2)C[C@@H](N)[C@@H]1O

>  <pIC50>
8.59

$$$$
>  <COMPOUND>
Cc1c2c(nn1C)C(=O)N(C)CCOc1c(cnn1C)-c1ccc3[nH]nc(c3c1)/C=C/2

>  <pIC50>
6.84

$$$$
>  <COMPOUND>
NC1CC(C(F)(F)F)CN(c2ccncc2NC(=O)c2csc(-c3c(F)cccc3F)n2)C1 (stereo not shown)

>  <pIC50>
8.52

$$$$
>  <COMPOUND>
N[C@@H]1CN(c2ccnc3ccc(-c4cccc(-c5nccs5)n4)cc23)CC[C@H]1F

>  <pIC50>
6.61

$$$$

# per-item lookup of pIC50; items listed below
1. COc1ccc(F)c(-c2nc(C(=O)Nc3cnccc3N3C[C@@H](N)[C@H](O)[C@@H](C)C3)ccc2F)c1F
2. O=C1NC(=O)/C(=C/c2ccc(Cl)cc2)S1
3. COCCOc1ccc(F)c(-c2nc(C(=O)Nc3cnccc3[C@H]3C[C@@H](N)[C@H](O)[C@@H](C)C3)ccc2F)c1F
4. O=C(O)/C=C/c1cccc(-c2cncc(N3CCNCC3)n2)c1

// result
[8.97, 6.70, 7.49, 6.70]

Give measured pIC50 for every item shown.
1. CCC(=O)c1cc(F)c(-c2nc(C(=O)Nc3cnccc3[C@@H]3C[C@H](C)C[C@H](N)C3)ccc2F)c(F)c1
2. C[C@@H]1C[C@H](N)C[C@H](c2ccncc2NC(=O)c2csc(-c3c(F)cc(O)cc3F)n2)C1 (stereo in doubt)

// result
1: 7.82; 2: 8.40

Could you tell me pIC50 for each of these compounds? They are listed below.
1. CCOc1ccc(F)c(-c2nc(C(=O)Nc3cnccc3[C@@H]3C[C@H](C)C[C@H](N)C3)cs2)c1F (stereo in doubt)
2. C=Cc1ccc(F)c(-c2nc(C(=O)Nc3cnccc3[C@H]3C[C@@H](N)[C@H](O)[C@@H](C)C3)ccc2F)c1F
3. CC(C)[C@@H]1C[C@H](N)C[C@H](c2ccncc2NC(=O)c2ccc(F)c(-c3c(F)cc(OC4COC4)cc3F)n2)C1

// result
[8.05, 7.50, 9.03]
